Catalogue of cytotoxicity at 70.5 h values
- methodNotes: Human HepG2 cell viability assay in 384 well format
- Type: toxicity, cell-based
- Design: dose 125 nL, time 70.5 hour; concentration not given beside the values
- cond: HepG2 cells, read-out: Inhibition
readoutName: cytotoxicity at 70.5 h (%)

1. CC(C)NC(=O)c1nnn(-c2ccccc2)c1C1CC1    -6.4
2. COC[C@@]12CCO[C@@H]1CCN(Cc1sccc1C)C2    -10.6
3. O=C(c1ccc2c(c1)CCC2)N1C[C@@H](CN2CCOCC2)[C@@H](CO)C1    -6.01
4. COCC(=O)NCC[C@H]1CC(C)(C)Oc2ccccc21    -3.02
5. CC(C)NC(=O)C1CN(C(=O)Nc2ccccc2)CC12CCOCC2 (stereo not given)    22

---

cytotoxicity at 70.5 h: recorded values
- methodNotes: Human HepG2 cell viability assay in 384 well format
- Format: toxicity, cell-based
- Parameters: dose 125 nL, time 70.5 hour; concentration not given beside the values
- cond: HepG2 cells, read-out: Inhibition
readoutName: cytotoxicity at 70.5 h (%)

1) COc1ncccc1CNC(=O)c1csc(Br)c1    -8.18
2) Cc1ccccc1CN1CCCC1c1cncc(Nc2nncs2)n1 (centres undefined)    -13.3
3) CN(C)CC(=O)N1Cc2nc(C(=O)N3CCCN(C)CC3)oc2C1    -7.8
4) Cc1cc(-c2ccc(C(=O)O)cc2)nc(C2CCCN(C(C)C)C2)n1 (centres undefined)    -9.15
5) O=C(NCC(F)(F)F)c1coc(COc2cccc(F)c2)n1    14.5
6) Nc1cc(C(=O)N2CCC(Oc3cccc(C(F)(F)F)c3)CC2)ccn1    -3.83
7) Cc1cccn2c(NC(C)(C)C)c(C3CCN(C(=O)C4CC4)CC3)nc12    -6.96
8) CC(=O)N1CC[C@@H]2CN(Cc3cccc(Cl)c3)S(=O)(=O)[C@@H]2CC1    -1.91
9) Cc1ccc(CCCC(=O)N2CC(=O)Nc3cccnc32)s1    -11.1

---

Here the recorded cytotoxicity at 70.5 h is given for each entry.
- methodNotes: Human HepG2 cell viability assay in 384 well format
- Format: toxicity, cell-based
- Set-up: dose 125 nL, time 70.5 hour; concentration not given beside the values
- cond: HepG2 cells, read-out: Inhibition
readoutName: cytotoxicity at 70.5 h (%)

1. O=C([C@H]1CCCO1)N1CCc2ncc(CN3CCOCC3)n2CC1    -11.9
2. Cc1cc(C2CCCN2Cc2cc(-c3ccco3)on2)on1 (stereo not drawn)    -14.5
3. O=C(CCn1ccc(=O)[nH]c1=O)N1CCC(Oc2ccccn2)CC1    -4.88
4. CN1C[C@H](O)C[C@H]1c1nc(-c2ccc3c(c2)OCO3)no1    -0.612
5. CC(C)c1noc(CCC(=O)N(CC2CCOC2)C2CC2)n1 (stereo not drawn)    -8.06
6. COCCCC1(CO)CCCN(C(=O)c2cnc(C3CC3)nc2)C1 (stereo not drawn)    -4.81
7. O=C1NC(c2ccccc2)=N[C@@]12CC[C@@H]1CN(CC3CC3)C[C@@H]12    -10.6
8. CCNS(=O)(=O)c1cnccc1N1CCN(CCO)CC1    4.82
9. O=S1(=O)CCC(N2CCN(c3cc(C(F)(F)F)ccn3)CC2)C1 (stereo not drawn)    1.03
10. O=C(c1cnc(COc2ccccc2)nc1O)N1CCC(F)(F)CC1    -5.82
11. OCc1c(Cl)ncn1-c1ccccc1    0.513
12. COc1ccc(-n2ccc(C(=O)NCCN3CCCC(C)C3)n2)cc1 (stereo not drawn)    23.3
13. Cc1noc(C)c1CNC(=O)C1(NS(C)(=O)=O)CCCCC1    -5.85
14. Cc1nc(C2CCCN(C(=O)CN3CCCNC3=O)C2)sc1C (stereo not drawn)    -8.3
15. O=C(C1=CCCC1)N1CCO[C@H]2[C@@H](Oc3ccccn3)CC[C@@H]21    -0.715
16. CS(=O)(=O)c1ccc(C(O)CN2CCC(c3ccn[nH]3)CC2)cc1 (stereo not drawn)    -17.4
17. CS(=O)(=O)N(Cc1ccon1)c1cccc(Br)c1    -1.5
18. Cc1nc2ccc(C(=O)N3CCC(COc4ccccn4)CC3)cc2[nH]1    44.6
19. Cc1ccc(CN2CC[C@H]3CO[C@H](CN4CCN(C)CC4)[C@H]3C2)o1    -7.33
20. O=C(CSc1nnc(N2CCNCC2)s1)Nc1ccccc1    27.6
21. O=C(CCc1ccccn1)N1CCCC(N2CCNC2=O)C1 (stereo not drawn)    -14.8
22. Cc1ccc(-c2ncc(CN3CCN(S(N)(=O)=O)CC3)s2)o1    0.625
23. CC(C)c1cc(NCc2csc(N(C)C)n2)nc(N)n1    17.1

---

compounds and their reported cytotoxicity at 70.5 h
- methodNotes: Human HepG2 cell viability assay in 384 well format
- Format: toxicity, cell-based
- Design: dose 125 nL, time 70.5 hour; concentration not given beside the values
- cond: HepG2 cells, read-out: Inhibition
readoutName: cytotoxicity at 70.5 h (%)

1) Cc1nnc([C@]23COC[C@H]2CN(Cc2cccs2)C3)o1    27.6
2) COCCn1ccc(NCc2cc3cc(F)ccc3o2)n1    -6.3
3) Cc1cccnc1C(Cc1ccsc1)NC(=O)Cn1cccnc1=O (stereo not given)    -1.07
4) CC(C)N(C)C(=O)C1=NOC2(CCN(C(=O)c3ccc(Cl)cc3)C2)C1 (stereo not given)    -0.00349
5) Cc1ncoc1C(=O)N1CC[C@@]2(C[C@H](NS(C)(=O)=O)CCO2)C1    -7.59
6) CC1COCCN1C(=O)COc1cccc(Oc2ccccn2)c1 (stereo not given)    -9.57
7) COC(=O)c1ccc(N2CCC(c3ccccc3)CC2)nn1    -8.39
8) COC(=O)C(CCSC)NC(=O)Cc1c(C)nn(-c2ccccc2)c1C (stereo not given)    1.93
9) CN(CCCc1ccccc1)C(=O)c1cn2c(n1)CNCC2    -3.6
10) COCCc1noc(Cn2ccc3ccccc3c2=O)n1    -0.672
11) Cc1ccc(CN2CCn3cc(CN4CCN(C)CC4)nc3C2)cc1    -13.5
12) CN(C)C(=O)CN1CC[C@@H]2O[C@@H](COCc3cccnc3)CC[C@@H]21    -1.43
13) CCCNC(=O)CNC(=O)CCc1ccccc1Br    -7.6
14) N#CC1COCCN1S(=O)(=O)c1ccc2ccccc2c1 (stereo not given)    -1.81
15) CCN(Cc1cccc(C)c1)Cc1nc2c(cnn2C)c(=O)[nH]1    -2.57

---

- methodNotes: Human HepG2 cell viability assay in 384 well format
- Format: toxicity, cell-based
- Set-up: dose 125 nL, time 70.5 hour; concentration not given beside the values
- cond: HepG2 cells, read-out: Inhibition
Form field: cytotoxicity at 70.5 h (one value per entry).
readoutName: cytotoxicity at 70.5 h (%)

1) Cc1nc(C)c(C)c(N2CCC3(CCN(C)C3)C2)n1 (stereo not drawn)    -8.86
2) Cn1ccnc1CN1CCCC1Cn1cccn1 (stereo not drawn)    -1.33
3) COc1ccc(CNCCC(=O)N2CCc3sccc3C2)cc1O    5.44
4) Cc1ccc(NC2COC3(CCN(CC(C)C)CC3)C2)nn1 (stereo not drawn)    27.8
5) Cc1cc(C(=O)N2CCC(n3nc(C)cc3C)C2)c2ccc(F)cc2n1 (stereo not drawn)    -9.21
6) Cc1cc(=O)[nH]c(-n2nc(C)c(CCC(=O)NCc3cccs3)c2C)n1    -0.337
7) CC(=O)c1ccc(N2CCCC(CO)(CCc3ccccc3)C2)nc1 (stereo not drawn)    -1.42
8) Cc1ccc(OCCCC(=O)NC(C)c2nnc3n2CCC3)cc1 (stereo not drawn)    -0.817
9) O=C1CCCCN1CCC(=O)N1CCCCC1c1ccc(F)cc1 (stereo not drawn)    -6.63
10) O=C(c1cccc2cccnc12)N1CCCN(c2cccnn2)CC1    -10.5
11) Cc1c(C(=O)NCCN2C(=O)CCC2=O)sc2ccc(F)cc12    2.84
12) O=C1CC(c2ccncc2)c2c(sc3c2CCCC3)N1 (stereo not drawn)    -13.1
13) Cn1nccc1CNC(=O)Nc1cc(C(F)(F)F)c[nH]c1=O    -7.39
14) CC(=O)N[C@@H]1CN(S(=O)(=O)Cc2ccccc2)C[C@H]1C(C)C    -0.553
15) CCN1CCC(CNS(=O)(=O)N2CCc3ccccc3C2)C1 (stereo not drawn)    6.73
16) COc1cc(CNC(=O)c2csc(Br)c2)ccn1    -12.9
17) c1ccc(CCN2CCN(c3ccc4nncn4n3)CC2)nc1    -6.96
18) FC(F)(F)c1ccnc(N2CCCN(C3CCOCC3)CC2)c1    -11.5
19) N#Cc1cccc(CS(=O)(=O)NCCC(O)c2ccccc2)c1 (stereo not drawn)    -10
20) Cc1ccccc1[C@@H]1CN(Cc2ccc(C(F)(F)F)nc2)C[C@H]1C(=O)O    -4.46
21) COCCN(CCC#N)S(=O)(=O)c1ccc(F)cc1Cl    0.577
22) CNc1cncc(C2CCCN2S(=O)(=O)c2cccc(F)c2)n1 (stereo not drawn)    -2.79
23) CCC(=O)N1CCC2(C=C(C(=O)N(C)C)c3ccccc32)CC1    14
24) O=C(c1cnc(-c2ccccn2)s1)N1CCCC1Cn1cccn1 (stereo not drawn)    -8.6
25) Cc1cc(NC(C)C(=O)N2CCN(c3ncccn3)CC2)ccc1F (stereo not drawn)    9.5
26) COc1ccccc1CN(C)c1nccc(-c2cn(C)nc2C)n1    -8.86
27) Cc1nc(C2CCCN(C(=O)c3cnc(C)s3)C2)no1 (stereo not drawn)    10.2
28) CCc1cnc(C)nc1N1CCS(=O)(=O)CC1    -7.02
29) CSCC(=O)N1CCCC(c2cc(C)[nH]n2)C1 (stereo not drawn)    -12
30) O=C(c1ccon1)N1CCCC(n2cncn2)C1 (stereo not drawn)    -1.78
31) O=C(NCc1ccccc1)N1CCC2(CC(=O)N(c3ccsc3)C2)C1 (stereo not drawn)    -2.89
32) CC(C)N1CCC(CC(=O)N2CCCCC2CCn2cccn2)CC1 (stereo not drawn)    -10.4
33) COc1ccc(CNC(=O)Cn2ccc3sccc3c2=O)cc1    12.8

FYI, the data here is from ChEMBL document CHEMBL3507680.
